Molecular target: T1, extracellular domain of human BLyS protein (hBLyS-ECD), His-tagged, Ala134-Leu285 (human, UniProt Q9Y275 134-285)
T1 construct: Expressed in HEK293 cells and purified on a Ni column; also called immunogen
T1 sequence (Q9Y275 134-285): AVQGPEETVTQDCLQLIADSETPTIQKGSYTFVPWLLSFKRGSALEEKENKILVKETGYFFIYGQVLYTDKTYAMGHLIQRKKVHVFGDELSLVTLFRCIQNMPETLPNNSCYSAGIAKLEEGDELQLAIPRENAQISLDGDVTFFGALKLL
Test: SPR (Biacore), antibody captured by anti-human Fc, hBLyS-ECD as analyte
metric: kon
Could you write the number and then its unit?

Request: Give its kon value. Item: h8E7D9C7F5-1 (antibody, V domains shown, Humanized antibody; also called humanized BLyS antibody h8E7D9C7F5 variant 1 (VH.1 / Vk.1)) VH: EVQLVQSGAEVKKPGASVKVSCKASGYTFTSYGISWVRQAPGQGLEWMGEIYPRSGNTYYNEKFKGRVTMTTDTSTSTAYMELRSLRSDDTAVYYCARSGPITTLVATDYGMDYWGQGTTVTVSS VL: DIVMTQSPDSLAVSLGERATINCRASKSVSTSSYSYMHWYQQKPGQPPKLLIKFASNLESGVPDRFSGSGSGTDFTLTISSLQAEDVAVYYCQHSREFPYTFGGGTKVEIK
Result: 218000 M⁻¹ s⁻¹

Request: Which kon value belongs to h97A3C2H4-9 (antibody, V domains shown, Humanized antibody; VH3-7/JH6 CDR-grafted with A93T, G44R; also called humanized BLyS antibody h97A3C2H4 variant 9 (VH.1b / Vk.1d)) VH: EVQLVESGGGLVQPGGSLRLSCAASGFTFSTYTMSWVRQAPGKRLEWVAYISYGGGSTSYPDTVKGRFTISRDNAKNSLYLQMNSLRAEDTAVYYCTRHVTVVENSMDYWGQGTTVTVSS VL: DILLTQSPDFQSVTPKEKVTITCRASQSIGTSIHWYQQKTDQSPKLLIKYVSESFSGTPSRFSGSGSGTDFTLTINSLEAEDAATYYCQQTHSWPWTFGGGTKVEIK ?
Result: 115000 M⁻¹ s⁻¹

Request: What value of kon has been recorded for this entry: c97A3C2H4 (antibody, V domains shown, also called chimeric antibody c97A3C2H4) VH: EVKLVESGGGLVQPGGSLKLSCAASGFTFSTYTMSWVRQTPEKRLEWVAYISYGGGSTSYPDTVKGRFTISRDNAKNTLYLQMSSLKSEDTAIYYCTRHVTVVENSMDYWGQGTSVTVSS VL: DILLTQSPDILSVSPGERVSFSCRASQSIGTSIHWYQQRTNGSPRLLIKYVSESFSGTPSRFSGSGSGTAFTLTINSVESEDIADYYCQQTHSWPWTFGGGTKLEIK
Result: 121000 M⁻¹ s⁻¹

Request: What does the record list as kon for c8E7D9C7F5 (antibody, V domains shown, also called chimeric antibody c8E7D9C7F5) VH: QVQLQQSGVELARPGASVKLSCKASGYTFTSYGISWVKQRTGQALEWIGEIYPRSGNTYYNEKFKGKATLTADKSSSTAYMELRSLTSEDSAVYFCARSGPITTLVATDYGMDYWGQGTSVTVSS VL: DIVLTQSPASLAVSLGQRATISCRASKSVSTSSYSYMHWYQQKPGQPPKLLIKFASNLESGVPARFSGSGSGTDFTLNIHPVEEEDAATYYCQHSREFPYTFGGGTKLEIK ?
Result: 243000 M⁻¹ s⁻¹
